Listed here are compounds together with their documented refractive index.
- experiment: refractive index (Na D-line) (dimensionless); wn = mass fraction of the nth substance listed
- condition_parameters: 308.15 K; 100 kPa; Liquid; Standard Abbe refractometry; w1 = 0.15

compound | refractive index
[Cl-].[Na+] [sodium chloride] + O | 1.359
OC[C@H]1O[C@H](O)[C@H](O)[C@@H](O)[C@@H]1O [α-D-glucose] + O | 1.3535
[Ca+2].[Cl-].[Cl-] [calcium chloride] + O | 1.3671
[Cl-].[K+] [potassium chloride] + O | 1.356

###

- experiment: refractive index (Na D-line) (dimensionless); wn = mass fraction of the nth substance listed
- condition_parameters: 298.15 K; 100 kPa; Liquid; Standard Abbe refractometry; w1 = 0.1
This section presents molecules with their documented refractive index values.

molecule | refractive index
[Cl-].[K+] [potassium chloride] + O | 1.348
OC[C@H]1O[C@H](O)[C@H](O)[C@@H](O)[C@@H]1O [α-D-glucose] + O | 1.3475
[Cl-].[Na+] [sodium chloride] + O | 1.3514
[Ca+2].[Cl-].[Cl-] [calcium chloride] + O | 1.3561

###

- experiment: refractive index (Na D-line) (dimensionless); wn = mass fraction of the nth substance listed
- condition_parameters: 308.15 K; 100 kPa; Liquid; Standard Abbe refractometry; w1 = 0.01

compound | refractive index
[Ca+2].[Cl-].[Cl-] [calcium chloride] + O | 1.3344
OC[C@H]1O[C@H](O)[C@H](O)[C@@H](O)[C@@H]1O [α-D-glucose] + O | 1.3345
[Cl-].[K+] [potassium chloride] + O | 1.3335
[Cl-].[Na+] [sodium chloride] + O | 1.3346

###

Below, each of the molecules is paired with its reported refractive index value.
- experiment: refractive index (Na D-line) (dimensionless); wn = mass fraction of the nth substance listed
- condition_parameters: 303.15 K; 100 kPa; Liquid; Standard Abbe refractometry; w1 = 0.1
± gives the expanded uncertainty stated by the source.
property: refractive index

molecule | property | test_value
OC[C@H]1O[C@H](O)[C@H](O)[C@@H](O)[C@@H]1O [α-D-glucose] + O | refractive index | 1.3469 ± 0.0007
[Cl-].[K+] [potassium chloride] + O | refractive index | 1.3476 ± 0.0007
[Cl-].[Na+] [sodium chloride] + O | refractive index | 1.3508 ± 0.0007
[Ca+2].[Cl-].[Cl-] [calcium chloride] + O | refractive index | 1.3555 ± 0.0007

###

Known refractive index of a selection of compounds
- experiment: refractive index (Na D-line) (dimensionless); wn = mass fraction of the nth substance listed
- condition_parameters: 308.15 K; 100 kPa; Liquid; Standard Abbe refractometry; w1 = 0.05
Numbers after ± are expanded uncertainties.

compound | refractive index
[Cl-].[K+] [potassium chloride] + O | 1.339 ± 0.0007
OC[C@H]1O[C@H](O)[C@H](O)[C@@H](O)[C@@H]1O [α-D-glucose] + O | 1.3395 ± 0.0007
[Cl-].[Na+] [sodium chloride] + O | 1.3414 ± 0.0007
[Ca+2].[Cl-].[Cl-] [calcium chloride] + O | 1.3426 ± 0.0007

###

- experiment: refractive index (Na D-line) (dimensionless); wn = mass fraction of the nth substance listed
- condition_parameters: 293.15 K; 100 kPa; Liquid; Standard Abbe refractometry; w1 = 0.15
property: refractive index

compound | test_value
[Ca+2].[Cl-].[Cl-] [calcium chloride] + O | 1.3689
OC[C@H]1O[C@H](O)[C@H](O)[C@@H](O)[C@@H]1O [α-D-glucose] + O | 1.3553
[Cl-].[Na+] [sodium chloride] + O | 1.361
[Cl-].[K+] [potassium chloride] + O | 1.3577

###

- experiment: refractive index (Na D-line) (dimensionless); wn = mass fraction of the nth substance listed
- condition_parameters: 313.15 K; 100 kPa; Liquid; Standard Abbe refractometry; w1 = 0.01
property: refractive index

compound | property | test_value
[Cl-].[Na+] [sodium chloride] + O | refractive index | 1.3339
OC[C@H]1O[C@H](O)[C@H](O)[C@@H](O)[C@@H]1O [α-D-glucose] + O | refractive index | 1.3337
[Ca+2].[Cl-].[Cl-] [calcium chloride] + O | refractive index | 1.3339
[Cl-].[K+] [potassium chloride] + O | refractive index | 1.333

###

- experiment: refractive index (Na D-line) (dimensionless); wn = mass fraction of the nth substance listed
- condition_parameters: 298.15 K; 100 kPa; Liquid; Standard Abbe refractometry; w1 = 0.01
refractive index by entry:

compound | refractive index
[Cl-].[K+] [potassium chloride] + O | 1.3345
[Ca+2].[Cl-].[Cl-] [calcium chloride] + O | 1.3353
[Cl-].[Na+] [sodium chloride] + O | 1.3359
OC[C@H]1O[C@H](O)[C@H](O)[C@@H](O)[C@@H]1O [α-D-glucose] + O | 1.3355

###

Reported refractive index values are given for each entry in this list.
- experiment: refractive index (Na D-line) (dimensionless); wn = mass fraction of the nth substance listed
- condition_parameters: 318.15 K; 100 kPa; Liquid; Standard Abbe refractometry; w1 = 0.05

molecule | refractive index
[Cl-].[Na+] [sodium chloride] + O | 1.3398
OC[C@H]1O[C@H](O)[C@H](O)[C@@H](O)[C@@H]1O [α-D-glucose] + O | 1.3379
[Cl-].[K+] [potassium chloride] + O | 1.3379
[Ca+2].[Cl-].[Cl-] [calcium chloride] + O | 1.3414

###

# refractive index values compiled below
- experiment: refractive index (Na D-line) (dimensionless); wn = mass fraction of the nth substance listed
- condition_parameters: 303.15 K; 100 kPa; Liquid; Standard Abbe refractometry; w1 = 0.01
property: refractive index

molecule | property | test_value
[Cl-].[K+] [potassium chloride] + O | refractive index | 1.334
[Cl-].[Na+] [sodium chloride] + O | refractive index | 1.3354
[Ca+2].[Cl-].[Cl-] [calcium chloride] + O | refractive index | 1.3349
OC[C@H]1O[C@H](O)[C@H](O)[C@@H](O)[C@@H]1O [α-D-glucose] + O | refractive index | 1.3349

###

- experiment: refractive index (Na D-line) (dimensionless); wn = mass fraction of the nth substance listed
- condition_parameters: 303.15 K; 100 kPa; Liquid; Standard Abbe refractometry; w1 = 0.05
property: refractive index

compound | test_value
[Cl-].[K+] [potassium chloride] + O | 1.3396
OC[C@H]1O[C@H](O)[C@H](O)[C@@H](O)[C@@H]1O [α-D-glucose] + O | 1.3401
[Ca+2].[Cl-].[Cl-] [calcium chloride] + O | 1.3431
[Cl-].[Na+] [sodium chloride] + O | 1.3422

###

- experiment: refractive index (Na D-line) (dimensionless); wn = mass fraction of the nth substance listed
- condition_parameters: 293.15 K; 100 kPa; Liquid; Standard Abbe refractometry; w1 = 0.1
property: refractive index

molecule | test_value
[Cl-].[Na+] [sodium chloride] + O | 1.3521
[Cl-].[K+] [potassium chloride] + O | 1.3486
[Ca+2].[Cl-].[Cl-] [calcium chloride] + O | 1.3568
OC[C@H]1O[C@H](O)[C@H](O)[C@@H](O)[C@@H]1O [α-D-glucose] + O | 1.3481

###

As shown below, each of these compounds has a reported refractive index value.
- experiment: refractive index (Na D-line) (dimensionless); wn = mass fraction of the nth substance listed
- condition_parameters: 303.15 K; 100 kPa; Liquid; Standard Abbe refractometry; w1 = 0.15
property: refractive index

compound | property | test_value
OC[C@H]1O[C@H](O)[C@H](O)[C@@H](O)[C@@H]1O [α-D-glucose] + O | refractive index | 1.3542
[Cl-].[Na+] [sodium chloride] + O | refractive index | 1.3596
[Ca+2].[Cl-].[Cl-] [calcium chloride] + O | refractive index | 1.368
[Cl-].[K+] [potassium chloride] + O | refractive index | 1.3566

###

- experiment: refractive index (Na D-line) (dimensionless); wn = mass fraction of the nth substance listed
- condition_parameters: 318.15 K; 100 kPa; Liquid; Standard Abbe refractometry; w1 = 0.1
property: refractive index

molecule | test_value
[Cl-].[Na+] [sodium chloride] + O | 1.3485
[Ca+2].[Cl-].[Cl-] [calcium chloride] + O | 1.3539
[Cl-].[K+] [potassium chloride] + O | 1.346
OC[C@H]1O[C@H](O)[C@H](O)[C@@H](O)[C@@H]1O [α-D-glucose] + O | 1.3447

###

The following compounds are listed with their measured refractive index values.
- experiment: refractive index (Na D-line) (dimensionless); wn = mass fraction of the nth substance listed
- condition_parameters: 318.15 K; 100 kPa; Liquid; Standard Abbe refractometry; w1 = 0.15

compound | refractive index
[Cl-].[K+] [potassium chloride] + O | 1.355
[Ca+2].[Cl-].[Cl-] [calcium chloride] + O | 1.3662
[Cl-].[Na+] [sodium chloride] + O | 1.3572
OC[C@H]1O[C@H](O)[C@H](O)[C@@H](O)[C@@H]1O [α-D-glucose] + O | 1.3519

These measurements were taken from the NIST ThermoML archive (doi:10.1021/acs.jced.5b00018).
